- measurement.conditions: in o-xylene, 321.25 K
property.label: solubility (mole fraction)
Please state the value as a number alone, without comment.

The compound Nc1cccc(N)n1 showed solubility (mole fraction) equal to 0.00838

---

- measurement.conditions: in methanol, 307.95 K
property.label: solubility (mole fraction)
Respond using a number only.

For this compound ( Nc1cccc(N)n1 ), measured solubility (mole fraction) is 0.188

---

- measurement.conditions: in ethylbenzene, 282.25 K
property.label: solubility (mole fraction)
Lab note: record just the number, no unit beside it.

Quick note, solubility (mole fraction) for Nc1cccc(N)n1 landed at 0.00033

---

- measurement.conditions: in ethanol, 307.95 K
property.label: solubility (mole fraction)
Provide a numeric answer; units are not to be included.

According to the records, this compound Nc1cccc(N)n1 displays solubility (mole fraction) of 0.266

The reported measurements were obtained from BigSolDB 2.1.
